The reported numbers originate from PubChem BioAssay (NCI).

For each entry below, report its TGI value.
system: A549 NSCLC; experiment: NCI tumour cell line growth inhibition, 48 h

Request: I have this compound here, `COc1ccc(C(=O)Nc2ccc(O)c(=O)cc2)cc1` , and I need its recorded TGI.
Result: > 100 µM

Request: Report TGI for `COc1cc(C(=O)N2CCN(C(=O)c3cc(OC)c(OC)c(OC)c3)C2=S)cc(OC)c1OC` please.
Result: 56.7 µM

Request: # query: TGI of entry `NC(N)=NCCCC(=O)O`
Result: > 100 µM

Request: Sample COc1c(O)c2c(=O)cc3c4c5c(cc(=O)c6c(O)c(OC)c(CC(C)O)c(c(c1CC(C)O)c24)c65)OCO3 (stereo unspecified) — what was its TGI?
Result: 8.39 µM

Request: Requested read-out: TGI. Entry: `O=C1C=C/C(=N\N=C(c2ccccc2)c2ccccc2)O1`
Result: > 10 µM

Request: Quick check: TGI of `CCCNc1ncnc2c1ncn2C` ?
Result: > 100 µM

Request: Looking for the measured TGI of COc1ccc(CCN(C)C2CCC(C#N)(c3ccc(OC)c(OC)c3)CC2)cc1OC (stereo unspecified) , can you help?
Result: > 100 µM

Request: Bench note: what TGI did `C=CCn1c(=O)c(C(=O)Nc2nc(C34CC5CC(CC(C5)C3)C4)cs2)c(O)c2ccccc21` show?
Result: 45.1 µM

Request: Reported TGI for COc1cc2c(cc1OC)C1C3CCCCC3CCN1CC2 (stereo unspecified) : what is it?
Result: > 100 µM

Request: Fill in the blank: the reported TGI of `O=C1c2ccccc2C(=O)N1n1c(Cc2ccc([N+](=O)[O-])cc2)n[nH]c1=O` is ____.
Result: > 100 µM

Request: Which TGI reading was recorded for the compound COc1ccc2c(c1OCC(=O)O)C(=O)C(CCC(=O)O)CC2 (stereo unspecified) ?
Result: > 100 µM

---

tested on: EKVX NSCLC; assay: NCI tumour cell line growth inhibition, 48 h
Answer each item with its documented TGI.

Request: What TGI value was documented for this molecule, O=C(CC1C(=O)Nc2ccccc2S1=O)Nc1cc(Cl)ccc1Cl (centres undefined) ?
Result: > 100 µM

Request: Fill in: TGI of `CC(C)(/C=C(\C#N)C(=O)N1CCC[C@@H](n2nc(-c3ccc(Oc4ccccc4)cc3F)c3c(N)ncnc32)C1)N1CCN(C2COC2)CC1` is ___
Result: 19.2 µM

Request: What measured TGI goes with `Cc1nnc(Nc2ccc(NC(=O)Nc3ccc(Cl)cc3)cc2)c2ccccc12` ?
Result: 17.9 µM

Request: What TGI value was documented for this molecule, `N[C@@H](Cc1ccccc1)C(=O)N1CCC[C@@H]1P(=O)(Oc1ccccc1)Oc1ccccc1` ?
Result: > 100 µM

Request: Form field: reported TGI of O=C1NC2c3c(I)sc(I)c3C(O)C2O1 (centres undefined)
Result: > 100 µM

Request: Record request: TGI value, item Cc1nn(-c2ccccc2)c2c1C(c1cc3ccccc3nc1Cl)NC(=O)N2 (centres undefined)
Result: 88.8 µM

Request: Fill in: TGI of CC(NC(=O)Cc1ccccc1)NC(=O)C(C)C(=O)Nc1ccccc1 (centres undefined) is ___
Result: > 100 µM

Request: Bench note: what TGI did `CN(C)CC[C@H](CSc1ccccc1)Nc1ccc(S(=O)(=O)NC(=O)c2ccc(N3CCN(Cc4ccccc4-c4ccc(Cl)cc4)CC3)cc2)cc1[N+](=O)[O-]` show?
Result: > 100 µM

Request: I'd like to know its TGI. The molecule in question is COc1cc2c(cc1OC)C(C(c1ccccc1)c1ccccc1)N(C)CC2 (centres undefined)
Result: > 100 µM

---

tested on: ACHN renal; assay: NCI tumour cell line growth inhibition, 48 h
MEASUREMENT_LABEL: TGI

Request: Look up TGI: O=S(=O)(O)C(CO)c1ccccc1 (stereo not given) (tested in a mixture with another compound)
Result: > 100 µM

Request: For the molecule shown here, `COc1cc(Cl)cc(-c2nn(-c3cccc(NC(=O)c4ccc(N5CCOCC5)c(C(F)(F)F)c4)c3)cc2-c2ccncc2)c1` , give the reported TGI.
Result: > 100 µM

Request: Record request: TGI value, item COc1ccc(C2OC(c3ccncc3)=NN2C)cc1F (stereo not given)
Result: > 100 µM

Request: For COc1cc(O)c2c(c1)C(=O)c1cc3c(c(O)c1C2=O)C(OC1OC(C)C(OC)C(O)C1OC)C(OC)C(C)(O)C3=O (stereo not given) , what is its reported TGI?
Result: 12.8 µM

Request: Form field: reported TGI of `Cc1c2cc[n+](C)c(C)c2cc2c1[nH]c1ccccc12`
Result: > 100 µM

Request: Field request: TGI | item: `COC(=O)/C(=C/c1ccc(OC)cc1)C(C(=O)O)=C1CCCC1`
Result: > 100 µM

Request: Which measured TGI value corresponds to `C=CCn1c(=O)c(C(=O)Nc2nc(C34CC5CC(CC(C5)C3)C4)cs2)c(O)c2ccccc21` ?
Result: > 100 µM

Request: Name the recorded TGI for `CCOC(=O)c1ccc(/C(C)=N/NC(N)=S)cc1` .
Result: > 100 µM

Request: // lookup TGI for `CCCCCC#CCOC(=O)C(=[N+]=[N-])P(=O)(c1ccccc1)c1ccccc1`
Result: > 10 µM

Request: Query (molecule): `O=C(Cc1ccc(F)c(Cl)c1)Nc1cc(C2(C(F)(F)F)CC2)nn1CC1CCCCC1` ; field requested: TGI
Result: 13.9 µM

---

test system: MCF7 breast; assay: NCI tumour cell line growth inhibition, 48 h
Provide the reported TGI of each item.

Request: Can you look up the measured TGI of `CN(C)C1CCN(C(=O)c2ccc(NC(=O)Nc3ccc(-c4nc(N5CCOCC5)c5cccn5n4)cc3)cc2)CC1` for me?
Result: 1.51 µM

Request: Give the measured TGI of COc1cc2c(cc1OC)C1C3CCCCC3CCN1CC2 (stereo unspecified) .
Result: > 100 µM

Request: Find the recorded TGI belonging to CN1CCOC1c1ccccc1O (stereo unspecified) and report it.
Result: > 100 µM

Request: What does the record list as TGI for `COC(=O)[C@]12CC[C@@H](C)[C@H](C)[C@@H]1C1=CC[C@@H]3[C@@]4(C)C[C@@H](O)[C@H](O)[C@@](C)(CO)C4=CC[C@@]3(C)[C@]1(C)CC2` ?
Result: 31.2 µM

Request: Dear colleague, I am looking for the recorded TGI of the following molecule: `COC1=CC(=O)c2c(c(-c3nc(C)cs3)cn2C)C1=O`
Result: 10.9 µM

Request: Using the record for `COc1ccc(C(=O)/C=C/c2ccc(OCCCOc3ccc(/C=C/C(=O)c4ccc(OC)cc4)cc3)cc2)cc1` , report its TGI.
Result: > 100 µM

Request: Could you share which TGI value was measured for `N#CC(C#N)=C1SC(=Nc2ccccc2)C(=Nc2ccccc2)N1c1ccccc1` ?
Result: > 58.7 µM

Request: Query (molecule): Cc1cccc(C)c1NC(=O)C(Cc1c[nH]c2ccccc12)NC(=O)OCc1ccccc1 (stereo unspecified) ; field requested: TGI
Result: 95.8 µM

Request: State the recorded TGI for this entry: `Cc1nc(N)sc1N=Nc1ccccc1Br`
Result: 70.2 µM

Request: Returns the measured TGI for the input molecule. Input: `C[n+]1c(/C=C/c2c(O)ccc3ccccc23)ccc2ccccc21`
Result: 7.89 µM

Request: What measured TGI goes with `CCC(C)(C)c1ccc(OCCCCNC(=O)c2ccc3ccccc3c2O)c(C(C)(C)CC)c1` ?
Result: > 100 µM

Request: State the recorded TGI for this entry: `O=C1c2cc(-c3ccccc3)cnc2S(=O)(=O)N1c1ccc(Br)cc1`
Result: > 100 µM

Request: Please give the measured TGI for this molecule: `Nc1ncc(-c2ccc3ncnc(Nc4ccc(F)c(Cl)c4)c3c2)cn1`
Result: 20.5 µM

Request: May I ask what TGI has been recorded for `NC(N)=NCCCC(=O)O` ?
Result: > 100 µM

Request: I am curious: what TGI value has been reported for `O=C(O)CN1CCNCCN(CC(=O)O)CCN(CC(=O)O)CCNCC1` ?
Result: > 100 µM

Request: Find the recorded TGI belonging to `C[N+](C)([O-])CCOc1cc2c(c3ccccc13)-c1ccccc1C2=O` and report it.
Result: > 100 µM

Request: // TGI lookup, key: `O=C(NC[C@H](O)CN1CCc2ccccc2C1)c1cc(NC2COC2)ncn1`
Result: > 100 µM

Request: Any idea what TGI was measured for `C=CCn1c(=O)c(C(=O)Nc2nc(C34CC5CC(CC(C5)C3)C4)cs2)c(O)c2ccccc21` ?
Result: > 100 µM

Request: Which TGI is reported for this molecule? `O=c1c(F)cn(Cc2ccc(C34CC5CC(CC(C5)C3)C4)c(O)c2)c(=O)n1Cc1ccc(C23CC4CC(CC(C4)C2)C3)c(O)c1`
Result: 30.6 µM

Request: So what does the record say about TGI for `CC1(C)OC[C@@H](O)[C@H](C#N)CO1` ?
Result: > 100 µM

Request: Name the reported TGI value associated with the molecule `Clc1cc2c(c(CSc3nc4ccccc4n4cccc34)c1)OCOC2`
Result: > 100 µM
